- study_target: T1, mouse B7-H4ECD mIgG2a Fc fusion protein (mouse, UniProt Q7TSP5 25-257, limits assumed)
- T1 construct: also called mouse B7-H4-mIg fusion protein; Mouse B7-H4-mouse-Ig Fusion Protein; not shown: mouse IgG2a Fc
- T1 sequence: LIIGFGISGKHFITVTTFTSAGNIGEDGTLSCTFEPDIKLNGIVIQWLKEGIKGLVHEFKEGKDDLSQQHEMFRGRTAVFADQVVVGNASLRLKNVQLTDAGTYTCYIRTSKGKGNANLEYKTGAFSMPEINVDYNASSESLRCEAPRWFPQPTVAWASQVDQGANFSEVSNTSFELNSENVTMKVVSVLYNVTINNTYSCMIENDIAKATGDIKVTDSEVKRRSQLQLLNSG
- measurement_protocol: ELISA, mouse B7-H4ECD mIgG2a Fc fusion coated
- Protocol: 100 μg/ml mouse B7-H4ECD mIgG2a Fc fusion protein diluted in PBS was immobilized on flat bottom 96 well plate (Costar 9017) overnight at 4° C. Plates were washed twice with PBS+0.1% PS-20 and blocked with 200 μl/well PBS 10% FBS at RT for 1 hr. 100 μl chimeric 6H3 and 14 selected 6H3 humanized variants diluted in PBS 10% FBS were added to each well and incubated at RT for 1 hr. […] Plates were read at Absorbance 450 nm by PerkinElmer EnVision 2104 Multilabel Reader.
binders and their reported EC50
Use nM as the unit, but write only the number.

May I ask what EC50 has been recorded for humanized 6H3 variant 9 (antibody, V domains shown, also called V9; 6H3 V9) VH: EVQLVQSGAEVKKPGASVKVSCKASGYTFTDYYMNWVRQAPGQGLEWIGIINPYNGDTSYNQKFKGRVTLTVDKSTSTAYMELSSLRSEDTAVYYCARYPESTYWGQGTLVTVSS VL: DIVMTQTPLSLPVTLGQPASISCRSSQSLVHINGNTYLHWYQQRPGQSPRVLIYKVSNRFSGVPDRFSGSGSGTDFTLKISRVEAEDVGVYFCSQSTHVPLTFGQGTKVEIK ?
0.07

And what about the binder chimeric 6H3 (antibody, V domains shown, Mouse variable regions with constant regions from the human IgG1 heavy chain and human kappa light chain; also called human chimeric 6H3; hc6H3) VH: EVQLQQSGPVLVKPGTSVKMSCKASGYTFTDYYMNWVKQSHGKSLEWIGVINPYNGDTTYNQKFKGKATLTVDKSSSTAYMEVNSLTFEDSAVYYCARYPESTYWGQGTLVTVSA VL: DVVMTQTPLSLPVSLGDQASISCRSSQSLVHINGNTYLHWYLQKPGQSPKVLIYKVSNRFSGVPDRFSGSGSGTDFTLKISRVEAEDLGVYFCSQSTHVPLTFGAGTKLELK ?
0.09

And what about the binder humanized 6H3 variant 5 (antibody, V domains shown, also called V5; Variant 5 (antibody)) VH: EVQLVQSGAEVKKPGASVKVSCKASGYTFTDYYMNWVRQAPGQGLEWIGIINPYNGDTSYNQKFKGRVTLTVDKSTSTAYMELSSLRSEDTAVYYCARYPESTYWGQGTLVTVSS VL: DVVMTQSPLSLPVTLGQPASISCRSSQSLVHINGNTYLHWYLQRPGQSPKVLIYKVSNRFSGVPDRFSGSGSGTDFTLKISRVEAEDVGVYFCSQSTHVPLTFGGGTKVEIK ?
0.05

And what about the binder humanized 6H3 variant 3 (antibody, V domains shown, also called V3; H2B L1B) VH: EVQLVQSGAEMKKPGASVKVSCKASGYTFTDYYMNWVRQAPGQSLEWMGVINPYNGDTTYNQKFQGRVTVAVDKSATTAYMELSSLRSEDTAVYYCARYPESTYWGQGTLVTVSS VL: DVVMTQSPLSLPVTLGQPASISCRSSQSLVHINGNTYLHWYQQRPGQSPRVLIYKVSNRFSGVPDRFSGSGSGTDFTLKISRVEAEDVGVYFCSQSTHVPLTFGGGTKVEIK ?
0.1
